Where do these numbers come from? They come from the supplement of paper PMC13380429.

# System: U2OS
# assay_comment: cell viability relative to DMSO; higher = less toxic
# assay_context: 72 h; 10000 nM

molecule	cell viability, %
c1cncc(CN2CCC(n3ncc4c(N5CCOCC5)nc(-c5ccc6[nH]ccc6c5)nc43)CC2)c1	23
COc1cc(OC)c(C(=O)CCCN2CCCC2)c(OC)c1	108
N[C@@H](C(=O)O)c1cc(O)cc(O)c1 [dihydroxyphenylglycine]	101
O=C(O)Cc1ccc(OCCNC[C@H](O)c2ccccc2)cc1	104
CN(C(=O)c1ccc(F)cc1C(F)(F)F)C1CCN(c2nnc(-c3ccnn3C)c3ccccc23)CC1	95.6

* * *

# System: Vero E6
# assay_comment: cell viability relative to DMSO; higher = less toxic
# assay_context: 72 h; 10 nM
The entries below come with measured cell viability values attached.
metric: cell viability

compound	metric	value
Nc1ncnc2c1nc(Br)n2[C@@H]1O[C@@H]2COP(=O)(O)O[C@H]2[C@H]1O	cell viability	102%
CCOCc1cc(OC)c(-c2ccc(C[C@H](NC(=O)c3c(F)cccc3F)C(=O)O)cc2)c(OC)c1	cell viability	101%
Cn1c(C#N)ccc1-c1ccc2c(c1)C(C)(C)OC(=S)N2	cell viability	103%
CN1CCC(CNc2ccc3ncc(-c4cccc(OC(F)(F)F)c4)n3n2)CC1	cell viability	104%
CCOc1ccc(-n2c([C@@H](C)N(Cc3cccnc3)C(=O)Cc3ccc(F)c(C(F)(F)F)c3)nc3ncccc3c2=O)cc1 (racemic)	cell viability	97.2%
CN(C(=O)c1ccc(F)cc1C(F)(F)F)C1CCN(c2nnc(-c3ccnn3C)c3ccccc23)CC1	cell viability	99.5%
CCn1nc(C)c2c1C(c1ccccc1)=NCC(=O)N2	cell viability	99.9%
NC(=O)c1ccc(-c2nc(-c3ccccn3)c(-c3ccc4c(c3)OCO4)[nH]2)cc1	cell viability	92.4%
Cc1c[nH]c(=O)n(CCCN2CCN(c3ccccc3OCC(F)(F)F)CC2)c1=O	cell viability	96.2%
Cc1ncc(COP(=O)([O-])[O-])c(CN(CCN(CC(=O)O)Cc2c(COP(=O)([O-])O)cnc(C)c2O)CC(=O)O)c1O.[Mn].[Na+].[Na+].[Na+] [Mangafodipir (trisodium)]	cell viability	99.7%
COc1ccc(C(=O)Nc2sc3c(c2C(N)=O)CCCC3)cc1OC	cell viability	105%
CC1(C)O[C@@H]2C[C@H]3[C@@H]4CCC5=CC(=O)C=C[C@]5(C)[C@@]4(F)[C@@H](O)C[C@]3(C)[C@]2(C(=O)CO)O1 [TRIAMCINOLONE ACETONIDE]	cell viability	99%
CN(Cc1ccccc1)C(=O)[C@H](Cc1ccc2ccccc2c1)NC(=O)[C@@H]1C[C@@H](O)CN1C(=O)c1cn(C)c2ccccc12	cell viability	103%

* * *

# Tested on: Caco-2
# assay_comment: cell viability relative to DMSO; higher = less toxic
# assay_context: 72 h; 10 nM
The entries below come with measured cell viability values attached.
metric: cell viability (%)

molecule	study_system	value
CNCCCCOc1ccccc1Cc1ccccc1	Caco-2	101
O=C(NCCCN1CCC2(CC1)OCc1ccccc12)[C@H]1CCCN1Cc1ccccc1	Caco-2	103
O=C(O)c1cc(C(=O)O)c(C(=O)N(Cc2cccc(Oc3ccccc3)c2)[C@H]2CCCc3ccccc32)cc1C(=O)O	Caco-2	99.1
COc1cc2c(cc1O)C(CCc1ccc(Cl)cc1)N(C)CC2 (stereo not drawn)	Caco-2	97.2
CS(=O)(=O)c1cccc(CNc2nc(Nc3ccc4c(c3)CCC(=O)N4)ncc2C(F)(F)F)c1	Caco-2	101
O=C(NN1C(=O)[C@@H]2[C@@H]3C=C[C@@H]([C@H]4C[C@@H]34)[C@@H]2C1=O)c1ccc(C(F)(F)F)cc1	Caco-2	104
CC[C@H](CC#N)OC(=O)N[C@@H](C)c1cccc(NC(=O)Nc2ccc(-c3cnco3)c(OC)c2)c1	Caco-2	94.1
CC(=O)Nc1ccc(Cc2ccc(NC(C)=O)cc2)cc1	Caco-2	100
COc1ccc(-n2nc(C(F)(F)F)cc2-c2ccc(Cl)cc2)cc1	Caco-2	99.1
Nc1sc2c(c1C(=O)c1ccc(Cl)cc1)CCCC2	Caco-2	99.3
NC(=O)c1nc(Nc2ccccc2)sc1NC(=O)C1CCCCC1	Caco-2	97.8
CC1(C)CCC(C)(C)c2cc(C(=O)Nc3ccc(C(=O)O)cc3)ccc21	Caco-2	99.1
Nc1[nH]cnc2ncnc1-2	Caco-2	95.9

* * *

# Tested on: Vero E6
# assay_comment: cell viability relative to DMSO; higher = less toxic
# assay_context: 72 h; 1000 nM

compound	unit_annotation	cell viability
CNC(=O)O[C@H]1COc2ccc(N3CCN(C4COC4)CC3)cc2[C@@H]1NC(=O)c1ccc(F)cc1	%	104
CC(C)OC(=O)c1cc2c(OC[C@@H](O)CNC(C)(C)C)cccc2[nH]1	%	93.4
Cc1cccc(COc2cccc(/C=C3\C(=O)NN(c4ccccc4)C3=O)c2)c1	%	96.8
C[C@H]1N=C(N(C)C)N=C(N)N1	%	101
O=C(O)C1=CCNCC1	%	99.4
c1ccc(-c2n[nH]cc2-c2ccnc3ccccc23)nc1	%	89.3
O=C1Nc2ccccc2C2(CCN(CCc3ccc(C(F)(F)F)cc3)CC2)O1	%	96.3
CC(=O)O[C@H]1C[C@@H]2CC[C@@H]3[C@H](CC[C@@]4(C)[C@H]3C[C@H]([N+]3(C)CCCCC3)[C@@H]4OC(C)=O)[C@@]2(C)C[C@@H]1[N+]1(C)CCCCC1	%	101
C=C1C[C@]23C[C@@]1(O)CC[C@H]2[C@@]12C=C[C@H](O)[C@@](C)(C(=O)O1)[C@H]2[C@@H]3C(=O)O	%	102
c1cncc(CN2CCC(n3ncc4c(N5CCOCC5)nc(-c5ccc6[nH]ccc6c5)nc43)CC2)c1	%	82.2
CN[C@@H](C)CC1CCCCC1	%	104
C[C@H]1CCc2c(cc(Br)c(F)c2Br)N1C=O	%	93.8
CC1(C)[C@@H]2C[C@@H](O)[C@@](C)(O)[C@H]1C2 [2,3-cis/exo-pinanediol]	%	93.1
NS(=O)(=O)C#Cc1ccccc1	%	98.4
O=C1c2c(O)cc(O)cc2O[C@H](c2ccc(O)c(O)c2)[C@H]1O	%	97.6
COc1ccc(-c2cc(=S)ss2)cc1	%	102
CC/C(=C(/CC)c1ccc(O)cc1)c1ccc(O)cc1	%	98.3
CCOC(=O)[C@H](CCc1ccccc1)N[C@@H](C)C(=O)N1CCC[C@H]1C(=O)O	%	100
O=P(O)(O)C(O)(Cn1ccnc1)P(=O)(O)O	%	98.9
CCCCC/C=C\C=C\CCCCCCCCC(=O)O [trans-10,cis-12-conjugated-linoleic-acid]	%	102
CCCCC[C@H](O)/C=C/[C@H]1[C@H](O)CC(=O)[C@@H]1CCCCCCC(=O)O	%	101

* * *

The entries below come with measured cell viability values attached.
# Tested on: Caco-2
# assay_comment: cell viability relative to DMSO; higher = less toxic
# assay_context: 72 h; 10000 nM

molecule	study_system	cell viability (%)
C=C1CC[C@@H]2[C@](C)(CO)[C@H](O)CC[C@@]2(C)[C@@H]1C/C=C1/C(=O)OC[C@H]1O [andrographolide]	Caco-2	66
COc1ccc(-c2cc(=S)ss2)cc1	Caco-2	92.2
Cc1ccc(S(=O)(=O)NC(=O)NN2CCCCCC2)cc1 [tolazamide]	Caco-2	89.7
CCCCNC(=O)[C@@H]1Cc2ccccc2N1C(=O)[C@@H](N)CC [butabindide]	Caco-2	108
C[C@H]1CCc2c(cc(Br)c(F)c2Br)N1C=O	Caco-2	88.8
O=C(NN1C(=O)[C@@H]2[C@@H]3C=C[C@@H]([C@H]4C[C@@H]34)[C@@H]2C1=O)c1ccc(C(F)(F)F)cc1	Caco-2	94.2
O=C(CCCl)NCCc1ccccc1	Caco-2	109

* * *

The entries below come with measured cell viability values attached.
# Tested on: Caco-2
# assay_comment: cell viability relative to DMSO; higher = less toxic
# assay_context: 72 h; 100 nM
Structures can show the parent of a compound that is named as a salt.

compound	unit_annotation	cell viability
O=c1[nH]c(=O)n([C@H]2CCCO2)cc1F (racemic)	%	106
Oc1ccc2c3c1O[C@H]1c4[nH]c5ccccc5c4C[C@@]4(O)[C@@H](C2)N(CC2CC2)CC[C@]314	%	98.1
O=[N+]([O-])c1cccc2cn[nH]c12	%	97.1
COc1cccc2c1C(=O)c1c(O)c3c(c(O)c1C2=O)C[C@@](O)(C(=O)CO)C[C@@H]3O[C@H]1C[C@H](N)[C@@H](O)[C@H](C)O1 [Epirubicin Hydrochloride]	%	89

* * *

# Tested on: Caco-2
# assay_comment: cell viability relative to DMSO; higher = less toxic
# assay_context: 72 h; 10000 nM

molecule	study_system	unit_annotation	cell viability
Cc1nc[nH]c1CCN [4-methylhistamine]	Caco-2	%	101
COC[C@@H](NC(C)=O)C(=O)NCc1ccccc1 [Lacosamide]	Caco-2	%	106
Nc1sc2c(c1C(=O)c1ccc(Cl)cc1)CCCC2 [T-62]	Caco-2	%	90.8
